- protocol-description: Pharmacokinetic Assay, single oral dose 5 mg/kg (Table 12)
- Assay type: in vivo
- experimental-conditions: mouse; plasma concentration, C57 female mice, single oral dose 5 mg/kg, 4 h
Threshold-based label: concentration at 4 h under 300 ng/mL gives 1, concentration at 4 h not under 300 ng/mL gives 0.

molecule	answer-label
COc1nc(-c2cccc(-c3cccc(-c4nc5cc(CN6CCC[C@H]6C(=O)O)c(OC(F)F)cc5o4)c3C)c2C)ccc1CNCC1CCC(=O)N1 (stereo partly drawn)	1

Ask: Given the entry Cc1c(-c2ccc3c(c2)CCNC3)cccc1-c1cccc(-c2nc3cc(CN4CCC[C@H]4C(=O)O)c(OC(F)F)cc3o2)c1C , would its reported concentration at 4 h be below 300 ng/mL?
Reply: 1

Ask: Say whether its concentration at 4 h is strictly beneath 300 ng/mL. Entry: Cc1c(-c2nc3c(o2)CCN(CC(F)F)C3)cccc1-c1cccc(-c2nc3cc(CN4CCC[C@H]4C(=O)O)c(OC(F)F)cc3o2)c1C
Reply: 0

Ask: Bench note: check whether COc1nc(-c2cccc(-c3cccc(-c4nc5cc(CN6CCC[C@H]6C(=O)O)c(OC(F)F)cc5o4)c3C)c2C)ccc1CN1CC[C@H](C)C1 shows concentration at 4 h below 300 ng/mL
Reply: 1

Ask: Is the reported concentration at 4 h for Cc1c(-c2nc3cc(CN4CCC[C@H]4C(=O)O)c(OC(F)F)cc3o2)cccc1-c1cccc(-c2nc3cc(CN4CC[C@@H](C#N)C4)cc(C#N)c3o2)c1C strictly below 300 ng/mL?
Reply: 1
